- Test system: U251 CNS
- experiment description: NCI tumour cell line growth inhibition, 48 h; in the data active = GI50 below about 0.43 µM; inactive = the rest
A correct response names exactly one class from active, inactive

Previously resolved entries follow.
State the result this test recorded for `CC1(C)C(=O)/C(=C\c2cccnc2)C[C@]2(C)[C@H]3CC[C@@H]4[C@@H](C(=O)/C=C/c5ccncc5)CC[C@@]4(C)[C@]3(C)CC[C@@H]12` . inactive

Name the outcome recorded for `CC(=O)c1nc2ccccc2n1CC(=O)c1cccc(Cl)c1` in the assay. inactive

Tell me the assay call for `CCN(Cc1c(Cl)cccc1Cl)c1ccc(CO)c(Cl)c1` please. active

Hey, what did the test say about `CS(=O)(=O)N(c1cc(-c2ccc3ncnc(Nc4cccc(Cl)c4)c3c2)cnc1Cl)S(C)(=O)=O` ? inactive

What was the test verdict on `N.N.O=P([O-])([O-])C1(P(=O)([O-])[O-])CCCCCN1.[Pt+2]` ? inactive

Short answer needed: outcome of this test for `Cc1ccc(-c2cc(O)c(-c3ccc(C)cc3C)cc2O)c(C)c1` ? inactive

Next up:
Field: outcome | Entry: `O=C(NC(=S)Nc1cc(Cl)ccc1O)c1cccc(Br)c1` inactive
